Biological target: mAChR M4 (UniProt P08173)
Construct: hM1 and hM4 cDNAs were purchased from Missouri S&T cDNA Resource
Assay: mAChR M4 cell-based functional assay (calcium mobilization, Fluo-4, FDSS)
Settings: positive allosteric modulator activity, EC20 acetylcholine response, CHO-K1 cells
metric: pEC50

Cc1ccc2c(n1)sc1c(NC(=O)c3ccccc3)nn(C)c12; <5.00
Cc1cc(C)c2c(n1)sc1c(NC3CCC(N)CC3)n[nH]c12 (centres unmarked); <5.00
Cc1nc2sc3c(N)n[nH]c3c2c(C)c1Cl; <5.00
Cc1cc(C)c2c(n1)sc1c(NCC3CCN(C(=O)OC(C)(C)C)CC3)nn(C)c12; <5.00

# evaluate next
In: Give its pEC50 value. Item: Cc1cc(C)c2c(n1)sc1c(N)nn(CCO)c12
Out: 5.27

Data provenance is patent US9056876B2.
